Target: glucagon receptor (UniProt P47871 26-477, limits assumed)
Sequence (P47871 26-477 limits assumed): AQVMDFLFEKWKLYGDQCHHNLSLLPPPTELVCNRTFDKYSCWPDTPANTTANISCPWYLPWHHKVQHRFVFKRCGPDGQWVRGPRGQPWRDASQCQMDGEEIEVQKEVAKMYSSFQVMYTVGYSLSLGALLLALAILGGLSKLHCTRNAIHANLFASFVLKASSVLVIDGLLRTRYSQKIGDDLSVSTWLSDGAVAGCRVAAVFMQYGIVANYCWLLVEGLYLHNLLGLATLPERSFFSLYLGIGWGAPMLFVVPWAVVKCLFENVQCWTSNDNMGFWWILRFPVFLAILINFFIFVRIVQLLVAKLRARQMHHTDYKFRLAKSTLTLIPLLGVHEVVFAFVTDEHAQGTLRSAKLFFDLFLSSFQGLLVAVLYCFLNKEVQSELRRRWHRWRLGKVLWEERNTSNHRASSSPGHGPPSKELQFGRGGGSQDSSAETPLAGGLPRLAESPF
Assay: cell-based or functional assay
Numbered stars: 1 amine (or outer) side, 2 acyl side, 3 side chain; on linkers, the order of the positions; unused ones are H or OH. Bridge positions count the residues as written; N and C are the ends. Square brackets hold non-standard residues; d marks the D form. Side chains are listed from the residue outwards. Ends that are not written are not given here. * marks the point of attachment. γGlu = O=C(O)[C@H](CCC(=O)[*:2])N[*:1]; Palmitoyl = CCCCCCCCCCCCCCCC(=O)*; DMIA = not defined here; Aib = CC(C)(N)C(=O)O
Everything with in vitro activity EC50 lower than 20 pM is Not met; everything else, including exactly 20 pM, is Met.

# example entries with known answers
{"binder": "XSQGTFTSDYSKYLDERRAKDFVQWLMNK (DMIA at position 1; E16/K20 lactam; C16 fatty acyl on Lys29 via γ-Glu-γ-Glu spacer) [DMIA1, E16/K20 lactam, Lys29 γE-γE-C16 (SEQ ID NO: 654)]", "label.value": "Met"}
{"binder": "H[Aib]QGTFTSDK([γGlu-Palmitoyl])SKYLD[Aib]RAAQDFVQWLMDT-NH2 [AIB2, AIB16, A18, D28, Lys10 γE-C16 (SEQ ID NO: 656)]", "label.value": "Not met"}
{"binder": "H[dS]QGTFTSDK([γGlu-γGlu-Palmitoyl])SKYLDEQAAKEFIAWLMNT [Chi-2, d-Ser2, Lys10 γE-γE-C16 (SEQ ID NO: 644)]", "label.value": "Not met"}
{"binder": "H[dS]QGTFTSDK([γGlu-Palmitoyl])SKYLDEQAAKEFIAWLMNT [Chi-2, d-Ser2, Lys10 γE-C16 (SEQ ID NO: 643)]", "label.value": "Not met"}
{"binder": "XSQGTFTSDYSKYLDERRAKDFVQWLMNK (DMIA at position 1; E16/K20 lactam; C16 fatty acyl on Lys29 via γ-Glu spacer) [DMIA1, E16/K20 lactam, Lys29 γE-C16 (SEQ ID NO: 653)]", "label.value": "Met"}
{"binder": "[DMIA]SQGTFTSDK([γGlu-Palmitoyl])SKYLDERRAKDFVQWLMNT (lactam 16-20; reading uncertain) [DMIA1, E16/K20 lactam, Lys10 γE-C16 (SEQ ID NO: 651)]", "label.value": "Not met"}

Consider now this further binder.
Check the entry H[Aib]EGTFTSDK([γGlu-γGlu-Palmitoyl])SKYLDEQAAKEFIAWLMNT [Chi-2, AIB2, E3, Lys10 γE-γE-C16 (SEQ ID NO: 648)] : does in vitro activity EC50 equal or exceed 20 pM?
Met
